The entries below are paired with their reported koff.
- Target: DN-III quality control recombinant protein (produced by Fapon Biotech InC.) (dengue virus)
- Assay: BLI, AMC sensor, antibody captured
Give your result in s⁻¹ as a bare value.

The following binders have reported results that may help.
{"Binder": "WT 1-7 (antibody, V domains shown) VH: EVQLQQSGTELVRPGALVKLSCKASGFNIKEYYVHWVKQRPRQGLEWIGWIDPDNGKTIYDPKVQDKASITSDTSTNTAYLQLRSLTSEDTAVYYCVSAYVRFVYWGQGTLVTVSA VL: QIVLTQSPAIMSAFPGERVTMTCSASTSVKYMYWHQQKPGSSPRLLIYETSNVASGFPVRFSGSGSGTSYSLTISRDEAMDAATYYCQQQSSTPRTFGGGTKLEIKR", "koff (s⁻¹)": "1.53e-05"}
{"Binder": "WT 1-4 (antibody, V domains shown) VH: EVQLQQSGTELVRPGALVKLSCKASGFNIKEYYLHWVKQRPRQGLEWIGWIDPDNGKTLYDPKVQDKASITSDTSTNTAYLQLRSLTSEDTAVYYCVTAYYRFVYWGQGTLVTVSA VL: QIVLTQSPAIMSAFPGERVTMTCSASSSVKYMYWHQQKPGSSPRLLIYETSNLASGFPVRFSGSGSGTSYSLTISRDEAMDAATYYCQQQSSFPRTFGGGTKLEIKR", "koff (s⁻¹)": "4.95e-05"}
{"Binder": "Mutation 1-26 (antibody, V domains shown) VH: EVQLQQSGTELVRPGALVKLSCKASGFNIKDYYLHWVKQRPRQGLEWIGWIDPENGKTLYDPKFQDKASITSDTSTNTAYLQLRSLTSEDTAVYYCVTAYYRFVYWGQGTLVTVSA VL: QIVLTQSPAIMSAFPGERVTMTCSASSSVRYMYWHQQKPGSSPRLLIYDTSNVASGVPVRFSGSGSGTSYSLTISRDEAMDAATYYCQQWSSYPRTFGGGTKLEIKR", "koff (s⁻¹)": "3.47e-05"}
{"Binder": "Mutation 1-17 (antibody, V domains shown) VH: EVQLQQSGTELVRPGALVKLSCKASGFNIKDYYLHWVKQRPRQGLEWIGWIDPENGKTIYDPKFQDKASITSDTSTNTAYLQLRSLTSEDTAVYYCVSAYFRFVYWGQGTLVTVSA VL: QIVLTQSPAIMSAFPGERVTMTCSASTSVRYMYWHQQKPGSSPRLLIYDTSNIASGVPVRFSGSGSGTSYSLTISRDEAMDAATYYCQQWSSFPRTFGGGTKLEIKR", "koff (s⁻¹)": "2.71e-05"}
{"Binder": "Mutation 1-28 (antibody, V domains shown) VH: EVQLQQSGTELVRPGALVKLSCKASGFNIKDYYIHWVKQRPRQGLEWIGWIDPENGKTLYDPKFQDKASITSDTSTNTAYLQLRSLTSEDTAVYYCVSAYFRFVYWGQGTLVTVSA VL: QIVLTQSPAIMSAFPGERVTMTCSASTSVRYMYWHQQKPGSSPRLLIYDTSNLASGVPVRFSGSGSGTSYSLTISRDEAMDAATYYCQQWSSYPRTFGGGTKLEIKR", "koff (s⁻¹)": "2.89e-05"}

May I ask what koff has been recorded for Mutation 1-41 (antibody, V domains shown) VH: EVQLQQSGTELVRPGALVKLSCKASGFNIKDYYLHWVKQRPRQGLEWIGWIDPENGKTIYDPKFQDKASITSDTSTNTAYLQLRSLTSEDTAVYYCVSAYYRFVYWGQGTLVTVSA VL: QIVLTQSPAIMSAFPGERVTMTCSASTSVRYMYWHQQKPGSSPRLLIYDTSNIASGVPVRFSGSGSGTSYSLTISRDEAMDAATYYCQQWSSYPRTFGGGTKLEIKR ?
3.47e-05

May I ask what koff has been recorded for Mutation 1-34 (antibody, V domains shown) VH: EVQLQQSGTELVRPGALVKLSCKASGFNIKDYYIHWVKQRPRQGLEWIGWIDPENGKTIYDPKFQDKASITSDTSTNTAYLQLRSLTSEDTAVYYCVSAYVRFVYWGQGTLVTVSA VL: QIVLTQSPAIMSAFPGERVTMTCSASSSVRYMYWHQQKPGSSPRLLIYDTSNLASGVPVRFSGSGSGTSYSLTISRDEAMDAATYYCQQWSSFPRTFGGGTKLEIKR ?
1.34e-05

May I ask what koff has been recorded for Mutation 1-6 (antibody, V domains shown) VH: EVQLQQSGTELVRPGALVKLSCKASGFNIKDYYVHWVKQRPRQGLEWIGWIDPENGKTIYDPKFQDKASITSDTSTNTAYLQLRSLTSEDTAVYYCVTAYVRFVYWGQGTLVTVSA VL: QIVLTQSPAIMSAFPGERVTMTCSASTSVRYMYWHQQKPGSSPRLLIYDTSNIASGVPVRFSGSGSGTSYSLTISRDEAMDAATYYCQQWSSTPRTFGGGTKLEIKR ?
3.72e-05

May I ask what koff has been recorded for Mutation 1-3 (antibody, V domains shown) VH: EVQLQQSGTELVRPGALVKLSCKASGFNIKDYYVHWVKQRPRQGLEWIGWIDPENGKTIYDPKFQDKASITSDTSTNTAYLQLRSLTSEDTAVYYCVSAYVRFVYWGQGTLVTVSA VL: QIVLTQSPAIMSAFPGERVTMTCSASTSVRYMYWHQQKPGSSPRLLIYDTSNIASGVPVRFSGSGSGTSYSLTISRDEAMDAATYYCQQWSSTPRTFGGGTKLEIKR ?
1.51e-05

May I ask what koff has been recorded for Mutation 1-9 (antibody, V domains shown) VH: EVQLQQSGTELVRPGALVKLSCKASGFNIKDYYVHWVKQRPRQGLEWIGWIDPENGKTLYDPKFQDKASITSDTSTNTAYLQLRSLTSEDTAVYYCVSAYVRFVYWGQGTLVTVSA VL: QIVLTQSPAIMSAFPGERVTMTCSASSSVRYMYWHQQKPGSSPRLLIYDTSNIASGVPVRFSGSGSGTSYSLTISRDEAMDAATYYCQQWSSTPRTFGGGTKLEIKR ?
1.35e-05

These measurements were taken from patent US20240158475A1.
